Please provide measured TGI for the entries that follow.
- System: SNB-19 CNS
- TEST PROTOCOL: NCI tumour cell line growth inhibition, 48 h

CCCN=C1Nc2ccccc2[C@@H]2N(C)c3ccccc3C(C)C[C@]12C (stereo partly drawn); 44.8 µM

Batch: TGI for all items listed.
1. NCCCN(CCCN)CCCNCc1c2ccccc2c(CNCCCN(CCCN)CCCN)c2ccccc12
2. O=C1C(Cl)=C(Oc2ccc([N+](=O)[O-])cc2)C(=O)c2c(O)ccc(O)c21

stdout:
1. 30.6 µM
2. > 100 µM

* * *

- System: K-562 leukemia
- TEST PROTOCOL: NCI tumour cell line growth inhibition, 48 h
What TGI was measured for each of the following?

CCCCCNC(=O)[C@@H]1CCCN2C(=O)CC[C@H](NC(=O)[C@H](Cc3ccc(OP(=O)(O)O)cc3)NC(C)=O)C(=O)N12; > 25 µM

Below are some compounds; for each one, tell me its TGI.
1. COc1ccc(C2c3cc4c(cc3OC(NNC(N)=O)C2C)OCO4)cc1 (centres undefined)
2. CC(C)=CC(=O)Oc1ccc([N+](=O)[O-])cc1
3. O=c1[nH]c2nccnc2c2c([N+](=O)[O-])cccc12

stdout:
1. > 34.9 µM
2. > 100 µM
3. > 100 µM

* * *

- Test system: UACC-257 melanoma
- TEST PROTOCOL: NCI tumour cell line growth inhibition, 48 h
QUANTITY MEASURED: GI50

N=C1c2nc3n(c2C(=O)c2nc4n(c21)CCCC4)CCCC3; 1.67 µM
CC(=O)[CH-]C(=O)c1ccccc1.CC(=O)[CH-]C(=O)c1ccccc1.CC(=O)[CH-]C(=O)c1ccccc1.[Tl+3]; 26.3 µM
CC(C)(C)C(=O)Nc1ccccc1I(=O)=O; > 100 µM
COc1ccc(C2=NN(C(=O)COc3ccc(Cl)cc3)C(O)(c3cc(F)c(Cl)cc3Cl)C2)cc1OC (stereo not given); 2.74 µM
Cn1ccc2c(NCCN)c3c(c(NCCN)c21)C(=O)c1ccccc1C3=O; 10.2 µM
O=C1/C(=C/c2ccc(O)c([N+](=O)[O-])c2)CCC/C1=C\c1ccc(O)c([N+](=O)[O-])c1; 15.5 µM
Nc1nc(Nc2ccc3c(c2)CC[C@@H](N2CCCC2)CC3)nn1-c1cc2c(nn1)-c1ccccc1CCC2; 1.89 µM
CCOC(=O)Cc1csc(/N=C2\NC(=O)/C(=C3\C(=O)N(C)c4ccccc43)S2)n1; 79.1 µM
N#CC1=C(N)OC2=C(COc3ccc(F)cc32)C1c1ccc(Cl)cc1 (stereo not given); 41.6 µM

Now, please, on to the next compound.
stdin: Write down GI50 measured for item C=C1CC[C@@]2(C#N)[C@H]3[C@H](CC[C@@H]2C)[C@@H](C)C[C@@H](CC(C)(C)C#N)[C@H]13
stdout: 8.3 µM

* * *

Exercise: for every item that follows, state its recorded TGI.
- System: 786-0 renal
- TEST PROTOCOL: NCI tumour cell line growth inhibition, 48 h

C=C(C)[C@@H]1CC[C@]2(CO)CC[C@]3(C)[C@H](CC[C@@H]4[C@@]5(C)CC[C@H](O)C(C)(C)[C@@H]5CC[C@]43C)[C@@H]12; 27.1 µM
COc1ccccc1C1=C2C(=O)N(C)C(c3ccccc3OC)=C2C(=O)N1C; 85.5 µM
N#Cc1ccc(/C=N/NC(=O)CSCC(=O)N/N=C/c2ccc(C#N)cc2)cc1; > 100 µM
CC1=NC2(CCCCC2)N(Cl)C(=O)C1SC#N (centres undefined); 31.9 µM
c1cc2c(cc1C(N1CCNCC1)N1CCNCC1)OCO2; > 100 µM

Parameters: items (list). Returns: TGI for each item.
1. C=C1C(=O)O[C@@H]2C1C[C@@H](O)/C(C)=C/C/C=C(\C)CCC[C@H](C)[C@H]2OC(C)=O (some centres undefined)
2. CC(=O)Nc1ccc(N2C(=O)CS(=O)(=O)C2c2cccc(Oc3ccccc3)c2)cc1 (centres undefined)

stdout:
1. 34.3 µM
2. 35.7 µM

Value sought for every listed molecule: TGI.
1. COc1ccc(CNc2nc3cc(N)cc(N)c3nc2-c2ccccc2)cc1OC
2. CCOc1cc2c(cnc3c4cc(OC)c(OC)cc4ccc23)cc1OC
3. CC1(CCc2ccccc2)CC1(Br)Br (centres undefined)
4. CCOC(=O)CN=C1Nc2ccccc2C(=O)N2CSCC12 (centres undefined)
5. CCCN=C1Nc2ccccc2[C@@H]2N(C)c3ccccc3C(C)C[C@]12C (some centres undefined)
6. S=c1[nH]c(=S)c2sc(=S)n(-c3ccccc3)c2[nH]1
7. N#CCN1CCCCCc2ccccc21

stdout:
1. 33.5 µM
2. > 100 µM
3. 57.5 µM
4. > 100 µM
5. 33.9 µM
6. > 100 µM
7. > 100 µM

* * *

Would you mind telling me the reported TGI of each entry?
- Test system: OVCAR-8 ovarian
- TEST PROTOCOL: NCI tumour cell line growth inhibition, 48 h

// worked examples, TGI included
O=C(O)c1c2c(c(C(=O)O)c3ccccc13)-c1ccccc1-2; > 100 µM
O=C(Nc1ccc(-n2cc(-c3ccncc3)c(-c3ccc(Cl)c(O)c3)n2)cc1)Nc1cc(C(F)(F)F)cc(C(F)(F)F)c1; 5.48 µM
N#CCc1ccc(C(C#N)/C(CCCC(=O)Nc2cccc([N+](=O)[O-])c2)=N\NC(=O)NN)cc1 (configuration not stated); > 100 µM
CCC1=C[C@@H]2CN(C1)Cc1c([nH]c3ccccc13)[C@@](C(=O)OC)(c1cc3c(cc1OC)N(C=O)[C@H]1[C@@](O)(C(=O)OC)[C@H](OC(C)=O)[C@]4(CC)[C@@H]5C[C@@H]5CN5CC[C@]31[C@@H]54)C2; > 6.25 µM
O=C1C=C(N2CCCC2)C(=O)c2c(O)ccc(O)c21; > 10 µM

Answer for every listed entry: what is its TGI? The entries follow.
1. N#CC1=C(N)N=C(N2CCCCC2)C(C#N)C12Nc1ccccc1S2 (configuration not stated)
2. COc1ccc(C2S/C(=C\c3cc(OC)c(OC)c(OC)c3)C(=O)N2NC(=O)Cc2ccccc2)cc1 (configuration not stated)

stdout:
1. > 100 µM
2. > 100 µM

Respectfully, I request TGI for each entry included below.
1. C=C1CC[C@@]2(C#N)[C@H]3[C@H](CC[C@@H]2C)[C@@H](C)C[C@@H](CC(C)(C)C#N)[C@H]13
2. COc1ccc(C2=NN(C(=O)COc3ccc(Cl)cc3)C(O)(c3cc(F)c(Cl)cc3Cl)C2)cc1OC (configuration not stated)
3. O=[N+]([O-])c1ccc(-c2nc(N(CCO)CCO)c3ccccc3n2)o1
4. CCN(CC)c1ccc(/C=c2\nc(-c3ccccc3)n3c2nc2ccccc23)cc1
5. C=C1C[C@@H]2C/C=C/C(=O)C/C(C)=C\C=C\C(=O)O[C@H](C=O)C/C(C)=C/[C@H](C1)O2
6. OCCN1CN(c2nc(N3CN(CCO)C3)nc(N3CN(CCO)C3)n2)C1
7. COc1ccc2c([nH]c3cc(O)c(C)cc32)c1C=O

stdout:
1. 33.7 µM
2. 14.1 µM
3. 2.88 µM
4. > 100 µM
5. > 100 µM
6. > 100 µM
7. > 25 µM

Report TGI for each item below.
1. COc1cc(NC(=O)c2cc(OC)c3ccn(C)c3c2)cc2c1C[C@]1(C)CC[C@@H](O)C(C)(C)[C@H]1O2
2. C/C=C1/CN2[C@@H](C3=C[C@@H]4[C@@H]5N(C3=O)c3ccccc3[C@@]53CCN5C/C(=C/C)[C@@H]4C[C@H]53)C[C@@]34c5ccccc5N5C(=O)CC=C([C@H]1C[C@H]23)[C@H]54
3. O=C(/C=C/C=C/c1ccccc1)CCc1ccccc1

stdout:
1: > 100 µM; 2: 13.1 µM; 3: > 100 µM

* * *

- System: K-562 leukemia
- TEST PROTOCOL: NCI tumour cell line growth inhibition, 48 h
QUANTITY MEASURED: TGI

Your task in this section: give TGI for each listed record.
1. CC(=O)Nc1ccc(N2C(=O)CS(=O)(=O)C2c2cccc(Oc3ccccc3)c2)cc1 (configuration not stated)
2. C[C@]12CC[C@H](O)CC1=CC[C@@H]1C2CC[C@]2(C)c3nn(-c4ccc(F)cc4)nc3CC12 (some centres not stated)
3. O=C(CNC(=O)OCc1ccccc1)Oc1ccccc1
4. Cc1cccc(/C=N/NC(=S)N2CCCCCC2)n1
5. c1ccc2c(c1)nc1n2CCNC1

stdout:
55 µM
> 100 µM
> 100 µM
> 100 µM
> 100 µM

Please state, for each entry, its recorded TGI.
1. Cc1ncc([N+](=O)[O-])n1CCNS(=O)(=O)CCCn1ccnc1[N+](=O)[O-]
2. NC(CCl)=NC1CN2CCC1CC2 (configuration not stated)
3. CC1=NC2(CCCCC2)N(Cl)C(=O)C1SC#N (configuration not stated)
4. O=C1OC(C2Cc3ccccc3C2=O)c2ccccc21 (configuration not stated)
5. COC1/C(=C\C(=O)OC(C)(C)C)c2ccccc2N1C(C)=O (configuration not stated)
6. FC(F)(F)c1cccc(COCCN2CCN(Cc3cccc(C(F)(F)F)c3)CC2)c1

stdout:
> 100 µM
> 100 µM
41.4 µM
> 100 µM
> 100 µM
> 100 µM

stdin: Please report TGI for the following compound: c1ccc2[nH]c(SSc3nc4ncncc4[nH]3)nc2c1
stdout: > 100 µM
